# maps each entry to its GI50
Test system: UACC-257
Protocol details: NCI tumour cell line growth inhibition, 48 h
Activity calls are given as the source filed them. Rule as the data show it: active = GI50 up to about 1.1 µM and inactive = higher.

Some solved entries appear below for comparison.
[
  {
    "Compound": "CCOC(OC1=C(C#N)CCC1)C(CC)[Se]c1ccccc1 (centres undefined)",
    "GI50": "80.9 µM (inactive)"
  },
  {
    "Compound": "COc1cc(/C=C(\\C)[N+](=O)[O-])cc(OC)c1",
    "GI50": "15.5 µM (inactive)"
  },
  {
    "Compound": "Cc1ccccc1C(C#N)/C(=N/NC(N)=S)C(=O)Nc1c(C)cccc1C (centres undefined)",
    "GI50": "> 100 µM (inactive)"
  },
  {
    "Compound": "Cc1cc(S(=O)(=O)[N-]/C(=N/S(=O)(=O)c2cc(Cl)sc2Cl)[n+]2ccc(N(C)C)cc2)c(S)cc1Cl",
    "GI50": "> 100 µM (inactive)"
  },
  {
    "Compound": "C[n+]1c2ccc(Cl)cc2nc2cc(-c3ccccc3)ccc21",
    "GI50": "15.6 µM (inactive)"
  },
  {
    "Compound": "COc1ccc(N2N=NN(C(C)C)/C2=C(/Cl)c2nnnn2-c2ccc(OC)cc2)cc1",
    "GI50": "15.3 µM (inactive)"
  }
]

Task: Report value only: GI50, UACC-257, CCOC(=O)C1Oc2ccc([N+](=O)[O-])cc2C1(C)O (centres undefined)
Output: > 100 µM (inactive)

Task: Report value only: GI50, UACC-257, O=C(CC(C(=O)c1ccco1)c1cccs1)c1cccs1 (centres undefined)
Output: 24.8 µM (inactive)

Task: Report value only: GI50, UACC-257, CSc1nc2c(=O)n(-c3ccccc3)c(=S)n(-c3ccccc3)c2s1
Output: > 100 µM (inactive)

Task: Report value only: GI50, UACC-257, CC(C)CC(N)C(=O)NC(C(=O)NC(CCCNC(=N)N)C(=O)NC(CS)C(=O)NC1CSCC(C(=O)NC(Cc2ccccc2)C(=O)NC(C(=O)NC(CCCNC(=N)N)C(=O)O)C(C)C)NC(=O)C2CCCN2C(=O)C(CCCCN)NC(=O)C2CCCN2C(=O)C2CCCN2C(=O)C(Cc2ccc(O)cc2)NC(=O)C(CO)NC(=O)C(CCCCN)NC(=O)C(C(C)O)NC(=O)C(Cc2c[nH]c3ccccc23)NC1=O)C(C)C (centres undefined)
Output: > 25 µM (inactive)

Task: Report value only: GI50, UACC-257, O=C1C=CC2(C=C1)O[C@H](CCc1ccccc1)[C@@H](CCc1ccccc1)O2
Output: > 100 µM (inactive)

Task: Report value only: GI50, UACC-257, COc1ccc(N2C(=O)C(=O)N(c3ccccc3[N+](=O)[O-])C2=S)cc1
Output: 17.1 µM (inactive)

Task: Report value only: GI50, UACC-257, O=C(O)C[C@@H](Cl)[C@H](NC(=O)OCc1ccccc1)C(=O)O
Output: > 100 µM (inactive)

Task: Report value only: GI50, UACC-257, Cc1cc(C(=O)CSC(=S)SC(C)(C)C)ccc1Cl
Output: 18.2 µM (inactive)

Task: Report value only: GI50, UACC-257, Clc1ccc(CCn2cncn2)c(Cl)c1
Output: > 100 µM (inactive)

Task: Report value only: GI50, UACC-257, Cc1nc(-n2nc(-c3ccccc3)cc2-c2ccccc2)sc1C(=O)/C=C/c1ccc(Cl)cc1
Output: 20.1 µM (inactive)

Task: Report value only: GI50, UACC-257, COc1ccc2nc3c(nc2c1)C(C)(C)C=C3c1ccc(Br)cc1
Output: > 100 µM (inactive)

Task: Report value only: GI50, UACC-257, O=C(O)c1c(CC(Cc2ccc3c(c2)CCCC3)C(=O)O)ccc2c1CCCC2 (centres undefined)
Output: > 100 µM (inactive)

Task: Report value only: GI50, UACC-257, CCc1nc(N)nc(N)c1-c1ccc(N2CCNCC2)cc1
Output: 33.2 µM (inactive)

* * *

System: OVCAR-8
Protocol details: NCI tumour cell line growth inhibition, 48 h
The source made the active and inactive calls. Cut-off read from the data, not from the text of the source: active = GI50 up to about 1.1 µM and inactive = higher.
# maps each entry to its GI50

[
  {
    "Compound": "Nc1ccc(Sc2c3ccccc3nc3ccccc23)cc1",
    "System tested": "OVCAR-8",
    "Observation type": "GI50",
    "Result": "13.8 µM (inactive)"
  }
]

Task: Return GI50 (reported value) for this compound: COC(=O)CC(C(C(C)=O)C(=O)OCc1ccccc1)N1C(=O)OCC1c1ccccc1 (configuration not stated)
Output: > 100 µM (inactive)

Task: Return GI50 (reported value) for this compound: CC1CC=CC(O)C1 (configuration not stated)
Output: > 100 µM (inactive)

Task: Return GI50 (reported value) for this compound: NCCCCNCCCN1CC1
Output: 0.883 µM (active)

Task: Return GI50 (reported value) for this compound: O=C(O)/C=C/c1ccc(Oc2ccccc2C(=O)O)o1
Output: > 10 µM (inactive)

Task: Return GI50 (reported value) for this compound: Nc1nc(SCc2ccccc2)c2ncn(Cc3ccccc3)c2n1
Output: > 100 µM (inactive)

Task: Return GI50 (reported value) for this compound: Cn1ccnc1CCc1ccc(F)cc1F
Output: > 100 µM (inactive)

* * *

Test system: SK-OV-3
Protocol details: NCI tumour cell line growth inhibition, 48 h
Activity calls are given as the source filed them. No stated cut-off is given here; in the data, active = GI50 up to about 1.1 µM and inactive = higher.
Just give me one of these, please: YES (active), NO (inactive)

[
  {
    "Compound": "CN(C)C(=S)OC(Cn1cncn1)c1ccc(Cl)cc1Cl (stereo unspecified)",
    "Label value": "NO"
  },
  {
    "Compound": "CCOC(=O)CCC(NC(=O)c1ccc(Oc2nc3ccc(C(F)(F)F)cc3nc2-c2ccccc2)cc1)C(=O)OCC (stereo unspecified)",
    "Label value": "NO"
  },
  {
    "Compound": "Nc1nc(Cl)cc(NCC2(O)CC2)n1",
    "Label value": "NO"
  },
  {
    "Compound": "Cc1cc(S(=O)(=O)[N-]/C(=N/S(=O)(=O)c2cc(Cl)sc2Cl)[n+]2ccc(N(C)C)cc2)c(S)cc1Cl",
    "Label value": "NO"
  },
  {
    "Compound": "CN(C)CCCN1c2ccccc2Sc2ccc3ccccc3c21",
    "Label value": "NO"
  },
  {
    "Compound": "CCC(=O)c1c(NOC2OCC(OC(C)=O)C(OC(C)=O)C2OC(C)=O)nc(OC)n(C)c1=O (stereo unspecified)",
    "Label value": "NO"
  },
  {
    "Compound": "O=C1CC(Br)c2c(Cl)sc(Cl)c21 (stereo unspecified)",
    "Label value": "NO"
  },
  {
    "Compound": "O=C(/C=C(\\S/C=C(/c1ccccc1)N1CCn2c(C(=O)c3ccccc3)c(C(=O)c3ccccc3)c(C(=O)c3ccccc3)c21)C(=O)c1ccccc1)c1ccccc1",
    "Label value": "NO"
  },
  {
    "Compound": "CSc1ncnc2c1cnn2Cc1cn(CCCCO)nn1",
    "Label value": "NO"
  },
  {
    "Compound": "CN(C)C(=O)C(F)(F)C(c1ccccc1Br)C1C(=O)N(C)C(=O)N(C)C1=O (stereo unspecified)",
    "Label value": "NO"
  }
]

Now for a further compound.
Task: I would be grateful if you could indicate the recorded call for COc1cc(C(C)=O)cc(C(=O)N(C(C)C)C(C)C)c1[Si](C)(C)C .
Output: NO

* * *

Tested on: COLO 205
Protocol details: NCI tumour cell line growth inhibition, 48 h
Calls of active or inactive are those of the source. Cut-off read from the data, not from the text of the source: active = GI50 up to about 1.1 µM and inactive = higher.
Just give me one of these, please: active, inactive

[
  {
    "Molecule": "COC(=O)[C@H]1[C@H](C(=O)OC)[C@@H](C)c2c(ccc3c2[nH]c2ccccc23)[C@@H]1C",
    "Label value": "inactive"
  },
  {
    "Molecule": "COc1cc2c(cc1OCCCCCOc1cc3c(cc1OC)C(=O)N1CCC[C@H]1C(=O)N3)N=C[C@@H]1CCCN1C2=O",
    "Label value": "active"
  },
  {
    "Molecule": "CC(C)(C)OC/C=C(\\Br)CO",
    "Label value": "inactive"
  },
  {
    "Molecule": "O=C(/C=C/c1ccccc1)Oc1ccc(C(=O)/C=C/c2ccc(Cl)cc2)cc1",
    "Label value": "inactive"
  },
  {
    "Molecule": "COc1cc(C2c3cc4c(cc3[C@@H](Nc3cccc([N+](=O)[O-])c3)C3COC(=O)[C@H]23)OCO4)cc(OC)c1O (stereo partly drawn)",
    "Label value": "inactive"
  }
]

Task: I would be grateful if you could indicate the recorded call for CCCCCn1cnc2c1S(=O)(=O)N(C)C(NC(=O)c1ccccc1)=N2 .
Output: inactive

Task: I would be grateful if you could indicate the recorded call for CN(C)CCCNC(=O)c1cc(NC(=O)c2cc(NC(=O)[C@@H]3C[C@H]3C(=O)Nc3cc(C(=O)Nc4cc(C(=O)NCCCN(C)C)n(C)c4)n(C)c3)cn2C)cn1C .
Output: inactive

Task: I would be grateful if you could indicate the recorded call for CCOc1cc2oc(C)cc(=O)c2c(OC)c1/C=N/c1ccc(Cn2c(C)nc3ccccc32)cc1 .
Output: inactive
